# assay procedure: Solubility study in buffer solutions pH 1.2-7.5 (shake flask, HPLC)
# Format: physicochemical
# test parameters: potassium phosphate buffer pH 6.8, 25 °C, pH 6.8, aqueous buffer, thermodynamic from solid, pH 6.8, 25 °C, mean of three batches
result type: solubility at 96 h (mg/mL)
Lab book: enter the figure in mg/mL, no units written.

Request: # solubility at 96 h lookup, item C[n+]1ccc(C(=O)NCc2ccccc2)cc1.[I-] [enisamium iodide]
Response: 60.2

###

# assay procedure: Solubility study in buffer solutions pH 1.2-7.5 (shake flask, HPLC)
# Type: physicochemical
# test parameters: sodium acetate/acetic acid buffer pH 4.5, 37 °C, pH 4.5, aqueous buffer, thermodynamic from solid, pH 4.5, 37 °C, mean of three batches
result type: solubility at 96 h (mg/mL)
A number alone suffices; assume mg/mL.

Request: Consider the compound shown here: C[n+]1ccc(C(=O)NCc2ccccc2)cc1.[I-] [enisamium iodide] What is its recorded solubility at 96 h?
Response: 134

###

# assay procedure: Solubility study in buffer solutions pH 1.2-7.5 (shake flask, HPLC)
# Format: physicochemical
# test parameters: potassium phosphate buffer pH 6.8, 37 °C, pH 6.8, aqueous buffer, thermodynamic from solid, pH 6.8, 37 °C, batch 180215
result type: solubility at 96 h (mg/mL)
A number alone suffices; assume mg/mL.

Request: Can you look up the measured solubility at 96 h of C[n+]1ccc(C(=O)NCc2ccccc2)cc1.[I-] [enisamium iodide] for me?
Response: 128

###

# assay procedure: Solubility study in buffer solutions pH 1.2-7.5 (shake flask, HPLC)
# Assay type: physicochemical
# test parameters: potassium phosphate buffer pH 6.8, 37 °C, pH 6.8, aqueous buffer, thermodynamic from solid, pH 6.8, 37 °C, batch 190315
result type: solubility at 96 h (mg/mL)
Output spec: scalar in mg/mL, unitless text.

Request: Recorded solubility at 96 h of C[n+]1ccc(C(=O)NCc2ccccc2)cc1.[I-] [enisamium iodide] , please.
Response: 131

###

# assay procedure: Solubility study in buffer solutions pH 1.2-7.5 (shake flask, HPLC)
# Assay type: physicochemical
# test parameters: potassium phosphate buffer pH 7.5, 25 °C, pH 7.5, aqueous buffer, thermodynamic from solid, pH 7.5, 25 °C, mean of three batches
result type: solubility at 96 h

Request: Which solubility at 96 h reading was recorded for the molecule C[n+]1ccc(C(=O)NCc2ccccc2)cc1.[I-] [enisamium iodide] ?
Response: 59.1 mg/mL

###

# assay procedure: Solubility study in buffer solutions pH 1.2-7.5 (shake flask, HPLC)
# Format: physicochemical
# test parameters: potassium phosphate buffer pH 7.5, 37 °C, pH 7.5, aqueous buffer, thermodynamic from solid, pH 7.5, 37 °C, batch 180215
result type: solubility at 96 h (mg/mL)
Express your answer in mg/mL, writing the number without its unit.

Request: What value of solubility at 96 h has been reported for the following compound? C[n+]1ccc(C(=O)NCc2ccccc2)cc1.[I-] [enisamium iodide]
Response: 130

###

# assay procedure: Caco-2 monolayer transport (permeability) study
# Type: in vitro ADME, human
# test parameters: human, pH 7.4; Caco-2, monolayer qualification marker
result type: Papp B→A at 120 min (×10⁻⁶ cm/s)
Form entry: value (×10⁻⁶ cm/s) — number only.

Request: Using the record for COC(=O)c1ccccc1-c1c2ccc(=N)cc-2oc2cc(N)ccc12 [rhodamine 123, reference compound] , report its Papp B→A at 120 min.
Response: 4.5

// provenance: paper PMC5874533
